# System Tested: mTOR (Homo sapiens, UniProt P42345)
# Construct: FLAG; made in house
# Sequence (P42345 1362-2549): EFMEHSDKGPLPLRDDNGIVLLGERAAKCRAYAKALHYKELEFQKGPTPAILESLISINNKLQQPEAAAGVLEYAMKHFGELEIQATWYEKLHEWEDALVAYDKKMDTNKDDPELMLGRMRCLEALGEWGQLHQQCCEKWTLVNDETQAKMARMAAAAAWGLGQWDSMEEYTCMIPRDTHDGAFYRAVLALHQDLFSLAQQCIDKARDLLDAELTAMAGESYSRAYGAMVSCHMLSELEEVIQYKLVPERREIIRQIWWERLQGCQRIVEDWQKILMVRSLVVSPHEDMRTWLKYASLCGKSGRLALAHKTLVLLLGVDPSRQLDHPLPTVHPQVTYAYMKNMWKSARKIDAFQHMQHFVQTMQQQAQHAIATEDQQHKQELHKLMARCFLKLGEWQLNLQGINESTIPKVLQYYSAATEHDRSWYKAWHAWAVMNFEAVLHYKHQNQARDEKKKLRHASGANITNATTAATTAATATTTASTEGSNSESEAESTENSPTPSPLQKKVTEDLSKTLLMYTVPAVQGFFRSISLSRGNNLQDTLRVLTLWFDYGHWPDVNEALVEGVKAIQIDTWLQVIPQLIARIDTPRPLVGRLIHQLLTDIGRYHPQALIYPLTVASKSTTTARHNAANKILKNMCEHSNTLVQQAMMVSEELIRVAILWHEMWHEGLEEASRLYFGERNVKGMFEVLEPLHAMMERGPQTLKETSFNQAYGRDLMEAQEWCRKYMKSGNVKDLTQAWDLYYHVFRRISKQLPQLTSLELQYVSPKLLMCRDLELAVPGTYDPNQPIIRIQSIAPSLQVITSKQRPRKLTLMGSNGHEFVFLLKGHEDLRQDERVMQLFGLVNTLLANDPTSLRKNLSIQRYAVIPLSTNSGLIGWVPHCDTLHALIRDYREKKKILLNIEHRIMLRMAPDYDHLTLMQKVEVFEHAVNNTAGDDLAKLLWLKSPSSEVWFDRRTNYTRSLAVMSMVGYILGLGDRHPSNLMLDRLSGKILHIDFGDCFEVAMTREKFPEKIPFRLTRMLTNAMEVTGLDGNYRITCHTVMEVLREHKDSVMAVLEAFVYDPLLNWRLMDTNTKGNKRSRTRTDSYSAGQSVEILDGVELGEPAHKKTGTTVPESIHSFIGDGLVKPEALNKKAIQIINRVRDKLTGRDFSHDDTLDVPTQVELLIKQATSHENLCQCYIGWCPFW
# Assay Explanation: In Vitro mTOR Kinase Assay (Echo), Test (a)(ii)
# Type: biochemical
# Recorded Conditions: read-out: mTOR Kinase Assay (Echo)
pIC50: −log10 of the molar value.
Parameter: pIC50

Compound	Recorded Measurement
CCNC(=O)Nc1ccc(-c2nc(N3CCOC[C@@H]3C)cc(C3(S(=O)(=O)C(C)C)CC3)n2)cc1 [Example 7a]	8.64
C[C@H]1COCCN1c1cc(C2(S(=O)(=O)c3ccncc3)CC2)nc(-c2ccc(NC(=O)NC3CCC3)cc2)n1 [Example 6]	9.00
CCS(=O)(=O)C1(c2cc(N3CCOC[C@@H]3C)nc(-c3ccc(NC(=O)NCCCO)cc3)n2)CC1 [Example 11j]	7.91

1 = Cc1nc(S(=O)(=O)C2(c3cc(N4CCOC[C@@H]4C)nc(-c4ccc(NC(=O)Nc5cnn(C)c5)cc4)n3)CC2)sc1C [Example 81]
2 = C[C@H]1COCCN1c1cc(C2(S(C)(=O)=O)CCC2)nc(-c2ccc(NC(=O)NC3CCC3)cc2)n1 [Example 5d]
3 = CNC(=O)Nc1ccc(-c2nc(N3CCOCC3)cc(C3(S(C)(=O)=O)CCC3)n2)cc1 [Example 12q]
4 = C[C@H]1COCCN1c1cc(C2(S(=O)(=O)c3ccncc3)CC2)nc(-c2ccc(NC(=O)NCCN(C)C)cc2)n1 [Example 6e]
Inquiry: Put the entries in order of pIC50, starting with the largest number. Return value: ordered labels per request.
Reply text: 3, 2, 1, 4
(3: 8.79, 2: 8.41, 1: 8.09, 4: 7.17)

====

# System Tested: mTOR (Homo sapiens)
# Construct: FLAG; made in house
# Assay Explanation: In Vitro mTOR Kinase Assay (Echo), Test (a)(ii)
# Format: biochemical
# Recorded Conditions: read-out: mTOR Kinase Assay (Echo)
# Source text: (a)(ii) In Vitro mTOR Kinase Assay (Echo) The assay used AlphaScreen technology (Gray et al., Analytical Biochemistry, 2003, 313: 234-245) to determine the ability of test compounds to inhibit phosphorylation by recombinant mTOR. A C-terminal truncation of mTOR encompassing amino acid residues 1362 to 2549 of mTOR (EMBL Accession No. L34075) was stably expressed as a FLAG-tagged fusion in HEK293 cells as described by Vilella-Bach et al., Journal of Biochemistry, 1999, 274, 4266-4272. […]
pIC50: −log10 of the molar value.
Parameter: pIC50

P = CS(=O)(=O)C1(c2cc(N3CCOCC3)nc(-c3ccc(NC(=O)NC4CC4)cc3)n2)CCCC1 [Example 12j]
Q = C[C@H]1COCCN1c1cc(C2(S(C)(=O)=O)CC2)nc(-c2ccc(NC(=O)NC3COC3)cc2)n1 [Example 2ac]
R = C[C@H]1COCCN1c1cc(C2(S(C)(=O)=O)CCCC2)nc(-c2ccc(NC(=O)Nc3ccccn3)cc2)n1 [Example 4l]
S = C[C@H]1COCCN1c1cc(C2(S(C)(=O)=O)CC2)nc(-c2ccc(NC(=O)NCC(C)(C)CO)cc2)n1 [Example 2w]
Inquiry: // sort listed items: pIC50 descending Answer with the labels in sequence, matching the requested order.
Reply text: P, R, Q, S
(P: 8.78, R: 8.43, Q: 8.19, S: 7.16)

A = C[C@H]1COCCN1c1cc(C2(S(=O)(=O)c3ccncc3)CC2)nc(-c2ccc(NC(=O)Nc3ccc(C(F)(F)F)cc3)cc2)n1 [Example 6i]
B = CCCNC(=O)Nc1ccc(-c2nc(N3CCOC[C@@H]3C)cc(C3(S(C)(=O)=O)CCCC3)n2)cc1 [Example 4h]
C = CCCNC(=O)Nc1ccc(-c2nc(N3CCOC[C@@H]3C)cc(C3(S(=O)(=O)C4CC4)CC3)n2)cc1 [Example 3h]
D = CNC(=O)Nc1ccc(-c2nc(N3CCOC[C@@H]3C)cc(C3(S(=O)(=O)C4CC4)CC3)n2)cc1 [Example 3i]
Inquiry: Order by pIC50, ascending. # respond with the labels, arranged in the requested order
Reply text: C, A, B, D
(C: 7.78, A: 8.34, B: 8.80, D: 9.03)

I = CC(C)NC(=O)Nc1ccc(-c2nc(N3CCOC[C@@H]3C)cc(C3(S(C)(=O)=O)CCC3)n2)cc1 [Example 5c]
II = CC(C)S(=O)(=O)C1(c2cc(N3CCOC[C@@H]3C)nc(-c3ccc(NC(=O)NC4CC4)cc3)n2)CC1 [Example 7d]
III = CC(C)NC(=O)Nc1ccc(-c2nc(N3CCOC[C@@H]3C)cc(C3(S(=O)(=O)c4ccc(F)cc4)CC3)n2)cc1 [Example 8c]
Inquiry: Order field: pIC50 | Direction: descending (largest first) Please express your ranking as an ordered list of the labels.
Reply text: III, II, I

P = CS(=O)(=O)C1(c2cc(N3CCOCC3)nc(-c3ccc(NC(=O)NCCO)cc3)n2)CC1 [Example 12d]
Q = C[C@H]1COCCN1c1cc(C2(S(=O)(=O)C3CC3)CC2)nc(-c2ccc(NC(=O)NC3COC3)cc2)n1 [Example 3t]
R = CC(C)CNC(=O)Nc1ccc(-c2nc(N3CCOC[C@@H]3C)cc(C3(S(=O)(=O)C(C)C)CC3)n2)cc1 [Example 7i]
Inquiry: Give the ascending ranking of the items by reported pIC50. Please express your ranking as an ordered list of the labels.
Reply text: R, Q, P

====

# System Tested: mTOR (Homo sapiens, UniProt P42345)
# Construct: FLAG; made in house
# Assay Explanation: In Vitro mTOR Kinase Assay (Echo), Test (a)(ii)
# Type: biochemical
# Recorded Conditions: table of enzyme assay Test (a)(ii); read-out: Test (a)(ii) IC50
pIC50: −log10 of the molar value.
Parameter: pIC50

// solved cases for pIC50 follow
Compound	pIC50
C[C@H]1COCCN1c1cc(C2(S(=O)(=O)CCCO)CC2)nc(-c2ccc(NC(=O)N3CCC(O)C3)cc2)n1 (stereo partly shown) [Example 36cp]	5.90
Cc1cc(F)ccc1S(=O)(=O)C1(c2cc(N3CCOC[C@@H]3C)nc(-c3ccc(NC(=O)Nc4cnn(C)c4)cc3)n2)CC1 [Example 82f]	7.56
C[C@H]1COCCN1c1cc(C2(S(=O)(=O)C3CC3)CCCC2)nc(-c2ccc(NC(=O)NC3CC3)cc2)n1 [Example 36j]	7.74

P = CNC(=O)Nc1ccc(-c2nc(N3CCOC[C@@H]3C)cc(C3(S(C)(=O)=O)CCCC3)n2)cn1 [Example 14o]
Q = CNC(=O)Nc1ccc(-c2nc(N3CCOC[C@@H]3C)cc(C3(S(=O)(=O)c4ccc(F)cc4)CC3)n2)cc1
R = C[C@H]1COCCN1c1cc(C2(S(=O)(=O)c3ccccc3Cl)CC2)nc(-c2ccc(NC(=O)NCCO)cc2)n1 [Example 76c]
S = CCNC(=O)Nc1ccc(-c2nc(N3CCOC[C@@H]3C)cc(C3(S(=O)(=O)c4ccc(F)cc4F)CC3)n2)cc1 [Example 57e]
Inquiry: List items by pIC50 in falling order. To answer, arrange all of the labels according to the requested order.
Reply text: Q, R, S, P

====

# System Tested: mTOR (Homo sapiens)
# Construct: FLAG; made in house
# Assay Explanation: In Vitro mTOR Kinase Assay (Echo), Test (a)(ii)
# Type: biochemical
# Recorded Conditions: table of enzyme assay Test (a)(ii); read-out: Test (a)(ii) IC50
pIC50: −log10 of the molar value.
Parameter: pIC50

Molecule	pIC50
CN(C(=O)C1(c2cc(N3CCOCC3)nc(-c3ccc(NC(=O)NCCO)cc3)n2)CC1)C1CC1 [Example 34c]	8.46

I = C[C@H]1COCCN1c1cc(C2(S(=O)(=O)c3ccccc3F)CC2)nc(-c2ccc(NC(=O)NCCF)cc2)n1 [Example 58c]
II = Cc1csc(S(=O)(=O)C2(c3cc(N4CCOC[C@@H]4C)nc(-c4ccc(NC(=O)NC5CC5)cc4)n3)CCCC2)n1 [Example 36dk]
III = C[C@H]1COCCN1c1cc(C2(S(=O)(=O)c3cc(F)cc(F)c3)CC2)nc(-c2ccc(NC(=O)Nc3ccc(C(F)(F)F)cc3)cc2)n1 [Example 19j]
Inquiry: List these items ordered by pIC50, big to small. Answer format: list of labels, ordered as asked.
Reply text: I, II, III

====

# System Tested: mTOR (Homo sapiens)
# Construct: FLAG; made in house
# Assay Explanation: In Vitro mTOR Kinase Assay (Echo), Test (a)(ii)
# Assay type: biochemical
# Recorded Conditions: table of enzyme assay Test (a)(ii); read-out: Test (a)(ii) IC50
Parameter: IC50 (nM)

Consider the following illustrative entries.
Molecule	Unit Info	IC50
Cc1ccccc1S(=O)(=O)C1(c2cc(N3CCOC[C@@H]3C)nc(-c3ccc(NC(=O)NCCO)cc3)n2)CC1 [Example 54b]	nM	3.17
CCNC(=O)Nc1ccc(-c2nc(N3CCOCC3)cc(C3(S(=O)(=O)c4ccccc4)CC3)n2)cc1 [Example 36dd]	nM	2.91
C[C@H]1COCCN1c1cc(C2(S(=O)(=O)C(C)(C)C)CC2)nc(-c2ccc(NC(=O)NC3CCC3)cc2)n1 [Example 18a]	nM	7.14
CNC(=O)Nc1ccc(-c2nc(N3CCOCC3)cc(C3(C(=O)N4CCN(C)CC4)CC3)n2)cc1 [Example 32d]	nM	13.1

P = CC[C@H]1COCCN1c1cc(C2(S(C)(=O)=O)CC2)nc(-c2ccc(NC(=O)NC)cc2)n1
Q = CNC(=O)Nc1ccc(-c2nc(N3CCOCC3)cc(C3(C(=O)N(C)C)CC3)n2)cc1
Inquiry: Between P and Q , whose recorded IC50 is greater? Respond using the label that marks the chosen record.
Reply text: P
